Source: patent EP4365197A1

assay target: CD47 protein (Acrobiosystems, cat#CD7-HA2E9) (UniProt Q08722)
Sequence (Q08722 19-139 limits assumed): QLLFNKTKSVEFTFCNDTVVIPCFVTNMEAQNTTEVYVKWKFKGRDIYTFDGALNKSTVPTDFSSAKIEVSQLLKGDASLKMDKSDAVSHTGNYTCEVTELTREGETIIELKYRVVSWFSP
test name: ELISA, CD47 protein coated 100 ng/well, 0.8 µg antibody per well
measured parameter: OD450 measurements (OD450)
Write the number in OD450 without appending the unit.

Prompt line: Which OD450 measurements is listed for Hu3A5 (V3) antibody (antibody, V domains shown, Humanized 3A5) VH: EVQLVQSGAEVKKPGASVKVSCKASGYTFTSYWMHWMRQAPGQGLEWIGVIDPSDSYTSYNQKFQGRVTLTVDTSTSTAYMELSSLRSEDTAVYYCARGGKRAMDYWGQGTTVTVSS VL: DVVMTQSPDSLAVSLGERATINCKSSQSLVHSNGNTYLHWYQQKPGQPPKLLIYKVSNRFSGVPDRFSGSGSGTDFTLTISSLQAEDVAVYFCSQSTHVPFTFGGGTKLEIK ?
Response line: 2.54
